Reference source for all entries: patent US20230011869A1

System: Acinetobacter baumannii ATCC17961
Assay: Antimicrobial susceptibility testing: 90% growth inhibitory concentration (IC90) determination, Iso-Sensitest broth
Format: cell-based
Details: Acinetobacter baumannii, ATCC17961, 16 h, 90% growth inhibitory concentration, Acinetobacter baumannii ATCC17961, Iso-Sensitest broth, OD 600 nm over 16 h; read-out: ATCC17961 IC90
Where a name gives a salt, the structure may show the parent alone.
IC90 for assorted molecules
reported_property: IC90

COc1ccc(-c2cnc3c(Nc4ccc(C(=O)N5CCC(CN)CC5)c(C)c4)nccn23)cc1 [Example 19, hydrochloride] = 82 nM
COc1ccc(-c2cnc3c(Nc4ccc(C(=O)N5CCN(C(=O)[C@@H]6C[C@@H](O)CN6)CC5)c(C)c4)nccn23)cc1Cl [Example 92, hydrochloride] = 98 nM
Cc1cc(Nc2nccn3c(-c4ccc(OCC#N)c(F)c4F)cnc23)ccc1C(=O)N1CCN(C(=O)C2(O)CCNCC2)CC1 [Example 206, formate] = 36 nM
COc1ccc(-c2cnc3c(Nc4ccc(C(=O)N5CCN(C(=O)[C@@]6(O)CNCC[C@@H]6O)CC5)c(C)c4)nccn23)c(F)c1F = 80 nM
COc1ccc(-c2cnc3c(Nc4ccc(C(=O)N5CCN(C(=O)[C@]67CNCC[C@H]6OC(C)(C)O7)CC5)c(C)c4)nccn23)c(F)c1F (stereo in doubt) = 330 nM
COc1ccc(-c2cnc3c(Nc4ccc(C(=O)N5CCC(C(=O)NCC(O)CN6CCOCC6)CC5)c(C)c4)nccn23)c(F)c1F (stereo not drawn) = 216 nM
